# Measured on: T1, recombinant human OX40L (extracellular domain, R&D Systems) (human, UniProt P23510 51-183)
# T1 construct: also called hOX40L; rec. hOX40L
# T1 sequence: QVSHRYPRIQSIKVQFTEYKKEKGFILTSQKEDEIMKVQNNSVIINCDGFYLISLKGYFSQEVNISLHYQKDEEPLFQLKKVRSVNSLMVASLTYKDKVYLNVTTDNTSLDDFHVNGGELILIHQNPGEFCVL
# Experiment notes: SPR, second injection after competitor OX40L01E10
# Binding Level sample 2 - sample 1 (RU) per record follows
Number only, in RU; omit the unit.

[[record]]
binder = "OX40L19A07 (VHH, monovalent Nanobody from E. coli; not shown: C-terminal c-myc and His6 tag) VHH: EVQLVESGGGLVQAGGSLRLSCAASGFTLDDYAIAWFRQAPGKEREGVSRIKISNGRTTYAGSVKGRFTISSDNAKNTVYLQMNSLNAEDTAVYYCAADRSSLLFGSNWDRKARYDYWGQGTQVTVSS"
assay_readout = "Binding Level sample 2 - sample 1 (RU)"
unit_tag = "RU"
recorded_number = 12


Kindly consider the entry below.
// returns reported Binding Level sample 2 - sample 1 (RU) for input OX40L01E07 (VHH, monovalent Nanobody from E. coli; not shown: C-terminal c-myc and His6 tag) VHH: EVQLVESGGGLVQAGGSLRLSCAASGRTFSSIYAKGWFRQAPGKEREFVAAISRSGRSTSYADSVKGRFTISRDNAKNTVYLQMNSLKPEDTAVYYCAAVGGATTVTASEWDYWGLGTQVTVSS
62
